# ASSAY_EXPLANATION: Metabolic stability in mouse liver microsomes
# Type: in vitro ADME
# PROTOCOL_CONDITIONS: Table 3, mouse liver microsome data, head HLM/MLM without unit
# Experimental: Experimental Procedures S3: Metabolic stability in human and mouse liver microsomes These profiling studies were carried out as described in Mullangi R. et. al. Preclinical assessment of ulixertinib, a novel ERK1/2 inhibitor, ADMET & DMPK, 2017, 212-223;
Entries annotated with measured MLM

Completed entries (count: 5):
- MOLECULE: "Cc1nn(CC(C)(O)C(=O)N2CC(c3cccc4cnccc34)C2)cc1-c1cccc(F)c1 (stereo not drawn)"
  MEASURED_RESULT: "<5/<5"
- MOLECULE: "Cc1nn(CC(C)(O)C(=O)N2CCC(O)(c3cccc4[nH]c(=O)ccc34)CC2)cc1-c1cccc(F)c1 (stereo not drawn)"
  MEASURED_RESULT: "<5/<5"
- MOLECULE: "Cc1nn(CC(C)(O)C(=O)N2CCC(O)(c3cccc4cnccc34)CC2)cc1-c1cccc(F)c1 (stereo not drawn)"
  MEASURED_RESULT: "< 5"
- MOLECULE: "Cc1nn(CC(C)(O)C(=O)N2CCC(O)(c3cccc4c[n+]([O-])ccc34)CC2)cc1-c1cccc(F)c1 (stereo not drawn)"
  MEASURED_RESULT: 32
- MOLECULE: "Cc1nn(CC(C)(O)C(=O)N2CCC(C3=CC=CC4NC(=O)C=CC34)C2)cc1-c1cccc(F)c1 (stereo not drawn)"
  MEASURED_RESULT: "< 5"

Field: next molecule
-- ask Recorded MLM of Cc1nn(CC(C)(O)C(=O)N2CCC(c3cccc4[nH]c(=O)ccc34)CC2)cc1-c1cccc(F)c1 (stereo not drawn) , please.
-- reply < 5
